- methodDescription: clinical
- measurementParameters: human, plasma, po, 540 mg
readoutLabel: Cmax (µM)

CS(=O)(=O)c1ccc(C(=O)Nc2ccc(Cl)c(-c3ccccn3)c2)c(Cl)c1 [GDC-0449] ... 6.81

* * *

- methodDescription: clinical
- measurementParameters: human, plasma, po, 150 mg
readoutLabel: Cmax (µM)

CS(=O)(=O)c1ccc(C(=O)Nc2ccc(Cl)c(-c3ccccn3)c2)c(Cl)c1 [GDC-0449] ... 3.58

* * *

- methodDescription: In vitro solubility
- Assay type: physicochemical
- measurementParameters: pH 6.5
readoutLabel: solubility (µg/mL)

CS(=O)(=O)c1ccc(C(=O)Nc2ccc(Cl)c(-c3ccccn3)c2)c(Cl)c1 ... 0.1
